# credit: PubChem BioAssay AID2060906

Tested on: 485176-168-R4-J1-PDC complex spheroid growth;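 also: spheroids exposed to compounds for seven days before readout; luminescence viability expressed relative to DMSO vehicle wells set as 100%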
Assay protocol: Anticancer human tumor 485176-168-R4-J1-PDC patient-derived pancreatic adenocarcinoma cell line growth inhibition [RAS]
Setup conditions: second compound 0.0316 µM; first compound 0.1 µM; hits give low values
Excerpt: RAS pathway inhibitors in Combinations in Complex Spheroids A high-throughput screen of multi-cell type tumor spheroids was designed to identify active combinations of RAS pathway inhibitors and targeted small molecules. Complex spheroids include a stromal component modeled by human endothelial cells (HUVEC) and fibroblasts modeled by human mesenchymal stem cells (MSCs). […] Compounds. […] If the clinical Cmax for an agent had not been determined, the highest concentration tested was 10 microM. […]
Recorded metric: viability, T/C (%)
Report the value in % with no unit label.

Use the examples below as a reference point.
NC1c2ccccc2OC12CCN(c1cnc3c(N4CCCc5ncccc54)n[nH]c3n1)CC2 (stereo not drawn) + C#Cc1c(F)ccc2cc(O)cc(-c3ncc4c(N5CC6CCC(C5)N6)nc(OCC56CCCN5CC(F)C6)nc4c3F)c12
79.1
Cc1nc(N2CCC3(CC2)COC(C)C3N)c(CO)nc1Sc1ccnc(N)c1Cl (stereo not drawn) + C=CC(=O)N1CCN(c2nc(OCC3CCCN3C)nc3c(F)c(-c4nc(N)cc(C)c4C(F)(F)F)c(Cl)cc23)C(C)C1
91.5

For the next question, use this compound.
Query: Dear colleague, I am looking for the recorded viability, T/C of the following compound: CC(Nc1ccc2c(c1)OCCn1cc(N3C(=O)OCC3C(F)F)nc1-2)C(N)=O (stereo not drawn) + C=CC(=O)N1CCN(c2nc(OCC3CCCN3C)nc3c(F)c(-c4nc(N)cc(C)c4C(F)(F)F)c(Cl)cc23)C(C)C1
Reply: 78.5
